// data source = the supplement of paper PMC9112550

tested on: Escherichia coli TOP10; test: shrunken log2 fold change of peptide-encoding DNA abundance (4.5 h post-induction vs induction); higher = less antimicrobial activity (less host growth inhibition); conditions: time post-induction: 4.5 h; library: site-saturation at positions 5, 18, 19, 20
Binary classification by shrunken log2 fold change, with -0.006 as an inclusive lower bound for Fulfilled; all other cases are Not fulfilled.

Incoming: Is shrunken log2 fold change for `RRIRLRPPRLPRPRPRPRWSPRP` at or above -0.006?
Outgoing: Fulfilled

Incoming: Is shrunken log2 fold change for `RRIRQRPPRLPRPRPRPFNNPRP` at or above -0.006?
Outgoing: Not fulfilled

Incoming: Is shrunken log2 fold change for `RRIRCRPPRLPRPRPRPAGEPRP` at or above -0.006?
Outgoing: Fulfilled

Incoming: Is shrunken log2 fold change for `RRIRFRPPRLPRPRPRPELQPRP` at or above -0.006?
Outgoing: Fulfilled

Incoming: Is shrunken log2 fold change for `RRIRLRPPRLPRPRPRPMMSPRP` at or above -0.006?
Outgoing: Fulfilled

Incoming: Is shrunken log2 fold change for `RRIRRRPPRLPRPRPRPRSDPRP` at or above -0.006?
Outgoing: Fulfilled

Incoming: Is shrunken log2 fold change for `RRIRMRPPRLPRPRPRPGGIPRP` at or above -0.006?
Outgoing: Fulfilled

Incoming: Is shrunken log2 fold change for `RRIRDRPPRLPRPRPRPPQLPRP` at or above -0.006?
Outgoing: Fulfilled

----------
system: Escherichia coli TOP10; experiment: shrunken log2 fold change of peptide-encoding DNA abundance (4.5 h post-induction vs induction); higher = less antimicrobial activity (less host growth inhibition); conditions: time post-induction: 4.5 h; library: site-saturation at positions 5, 18, 19, 20
Listed sequences paired with reported shrunken log2 fold change
Response field accepts a number only; no unit should be typed.

Incoming: I'd like to know its shrunken log2 fold change. The sequence in question is `RRIRARPPRLPRPRPRPEPTPRP`
Outgoing: 0.832

Incoming: I'd like to know its shrunken log2 fold change. The sequence in question is `RRIRRRPPRLPRPRPRPWDDPRP`
Outgoing: -0.0642

Incoming: I'd like to know its shrunken log2 fold change. The sequence in question is `RRIRLRPPRLPRPRPRPTQNPRP`
Outgoing: 0.404

Incoming: I'd like to know its shrunken log2 fold change. The sequence in question is `RRIRARPPRLPRPRPRPTCMPRP`
Outgoing: 0.407

Incoming: I'd like to know its shrunken log2 fold change. The sequence in question is `RRIRQRPPRLPRPRPRPICHPRP`
Outgoing: -0.14

Incoming: I'd like to know its shrunken log2 fold change. The sequence in question is `RRIRRRPPRLPRPRPRPLQYPRP`
Outgoing: 0.615

Incoming: I'd like to know its shrunken log2 fold change. The sequence in question is `RRIRVRPPRLPRPRPRPNSTPRP`
Outgoing: -0.515

Incoming: I'd like to know its shrunken log2 fold change. The sequence in question is `RRIRYRPPRLPRPRPRPRAWPRP`
Outgoing: -0.214

Continuing:
Incoming: I'd like to know its shrunken log2 fold change. The sequence in question is `RRIRRRPPRLPRPRPRPGASPRP`
Outgoing: 0.665

Incoming: I'd like to know its shrunken log2 fold change. The sequence in question is `RRIRPRPPRLPRPRPRPNHKPRP`
Outgoing: -0.385

Incoming: I'd like to know its shrunken log2 fold change. The sequence in question is `RRIRRRPPRLPRPRPRPYPHPRP`
Outgoing: -0.181

Incoming: I'd like to know its shrunken log2 fold change. The sequence in question is `RRIRARPPRLPRPRPRPATMPRP`
Outgoing: 0.413

Incoming: I'd like to know its shrunken log2 fold change. The sequence in question is `RRIRMRPPRLPRPRPRPMPCPRP`
Outgoing: -0.00548

Incoming: I'd like to know its shrunken log2 fold change. The sequence in question is `RRIRDRPPRLPRPRPRPQWIPRP`
Outgoing: -0.222

Incoming: I'd like to know its shrunken log2 fold change. The sequence in question is `RRIRGRPPRLPRPRPRPQQLPRP`
Outgoing: 0.487

Incoming: I'd like to know its shrunken log2 fold change. The sequence in question is `RRIRRRPPRLPRPRPRPIESPRP`
Outgoing: 0.0332

Incoming: I'd like to know its shrunken log2 fold change. The sequence in question is `RRIRERPPRLPRPRPRPMDNPRP`
Outgoing: -0.626

Incoming: I'd like to know its shrunken log2 fold change. The sequence in question is `RRIRLRPPRLPRPRPRPATCPRP`
Outgoing: -0.597

Incoming: I'd like to know its shrunken log2 fold change. The sequence in question is `RRIRNRPPRLPRPRPRPREVPRP`
Outgoing: 0.00782

Incoming: I'd like to know its shrunken log2 fold change. The sequence in question is `RRIRTRPPRLPRPRPRPRPTPRP`
Outgoing: 0.626

Incoming: I'd like to know its shrunken log2 fold change. The sequence in question is `RRIRVRPPRLPRPRPRPARNPRP`
Outgoing: 0.414

Incoming: I'd like to know its shrunken log2 fold change. The sequence in question is `RRIRIRPPRLPRPRPRPLIQPRP`
Outgoing: -1.02

Incoming: I'd like to know its shrunken log2 fold change. The sequence in question is `RRIRLRPPRLPRPRPRPGWGPRP`
Outgoing: 0.335

Incoming: I'd like to know its shrunken log2 fold change. The sequence in question is `RRIRHRPPRLPRPRPRPQCLPRP`
Outgoing: -0.0192

----------
tested on: Escherichia coli TOP10; experiment: shrunken log2 fold change of peptide-encoding DNA abundance (4.5 h post-induction vs induction); higher = less antimicrobial activity (less host growth inhibition); details: time post-induction: 4.5 h; library: site-saturation at positions 5, 18, 19, 20
Binary classification by shrunken log2 fold change, with 0.04 as an inclusive lower bound for fulfilled; all other cases are not fulfilled.

Incoming: Is shrunken log2 fold change for `RRIRDRPPRLPRPRPRPDHYPRP` at or above 0.04?
Outgoing: not fulfilled

Incoming: Is shrunken log2 fold change for `RRIRQRPPRLPRPRPRPVVTPRP` at or above 0.04?
Outgoing: fulfilled

----------
tested on: Escherichia coli TOP10; assay: shrunken log2 fold change of peptide-encoding DNA abundance (4.5 h post-induction vs induction); higher = less antimicrobial activity (less host growth inhibition); settings: time post-induction: 4.5 h; library: site-saturation at positions 5, 18, 19, 20;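 also: peptides expressed intracellularly from a pBAD plasmid library in pooled LB shake-flask culture, induced with 0.3% L-arabinose, DNA abundance read by NGS, three biological replicates, DESeq2 with apeglm shrinkage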
Listed sequences paired with reported shrunken log2 fold change
Response field accepts a number only; no unit should be typed.

Consider the reported shrunken log2 fold change for these sequences:
Incoming: Query the reported shrunken log2 fold change for Escherichia coli TOP10; item: `RRIRFRPPRLPRPRPRPEERPRP`
Outgoing: 0.477

Incoming: Query the reported shrunken log2 fold change for Escherichia coli TOP10; item: `RRIRYRPPRLPRPRPRPCRSPRP`
Outgoing: 0.00487

Incoming: Query the reported shrunken log2 fold change for Escherichia coli TOP10; item: `RRIRMRPPRLPRPRPRPKHWPRP`
Outgoing: 0.91

Continuing:
Incoming: Query the reported shrunken log2 fold change for Escherichia coli TOP10; item: `RRIRFRPPRLPRPRPRPKTPPRP`
Outgoing: 0.207

Incoming: Query the reported shrunken log2 fold change for Escherichia coli TOP10; item: `RRIRYRPPRLPRPRPRPQGNPRP`
Outgoing: -0.0344

Incoming: Query the reported shrunken log2 fold change for Escherichia coli TOP10; item: `RRIRFRPPRLPRPRPRPFAMPRP`
Outgoing: -0.326

Incoming: Query the reported shrunken log2 fold change for Escherichia coli TOP10; item: `RRIRERPPRLPRPRPRPFTNPRP`
Outgoing: -0.457

Incoming: Query the reported shrunken log2 fold change for Escherichia coli TOP10; item: `RRIRWRPPRLPRPRPRPKCCPRP`
Outgoing: 0.0888

Incoming: Query the reported shrunken log2 fold change for Escherichia coli TOP10; item: `RRIRNRPPRLPRPRPRPPKDPRP`
Outgoing: 0.131

Incoming: Query the reported shrunken log2 fold change for Escherichia coli TOP10; item: `RRIRCRPPRLPRPRPRPGYCPRP`
Outgoing: -0.0918

Incoming: Query the reported shrunken log2 fold change for Escherichia coli TOP10; item: `RRIRGRPPRLPRPRPRPKRTPRP`
Outgoing: 1.01

Incoming: Query the reported shrunken log2 fold change for Escherichia coli TOP10; item: `RRIRARPPRLPRPRPRPWDIPRP`
Outgoing: 0.173

Incoming: Query the reported shrunken log2 fold change for Escherichia coli TOP10; item: `RRIRCRPPRLPRPRPRPVARPRP`
Outgoing: 0.255

Incoming: Query the reported shrunken log2 fold change for Escherichia coli TOP10; item: `RRIRLRPPRLPRPRPRPMMKPRP`
Outgoing: -0.0811

Incoming: Query the reported shrunken log2 fold change for Escherichia coli TOP10; item: `RRIRERPPRLPRPRPRPADHPRP`
Outgoing: -0.0618

Incoming: Query the reported shrunken log2 fold change for Escherichia coli TOP10; item: `RRIRCRPPRLPRPRPRPLNLPRP`
Outgoing: -0.489
